Test system: Escherichia coli
measurement_description: In vitro minimum inhibitory concentration against Escherichia coli NIHJ JC-2
Format: functional
value_type: MIC (mg/L)

Use the examples below as a reference point.
molecule	target_desc	MIC (mg/L)
NC1CCN(c2c(F)cc3c(=O)c(C(=O)O)cn(/C=C/F)c3c2F)C1 (centres undefined)	Escherichia coli	0.2
NC1CCN(c2c(F)cc3c(=O)c(C(=O)O)cn(/C=C\F)c3c2F)C1 (centres undefined)	Escherichia coli	0.05
COc1c(N2CCC(N)C2)c(F)cc2c(=O)c(C(=O)O)cn(/C=C/F)c12 (centres undefined)	Escherichia coli	0.1
COc1c(N2CCC(N)C2)c(F)cc2c(=O)c(C(=O)O)cn(/C=C\F)c12 (centres undefined)	Escherichia coli	0.0125

[1] COc1c(N2CCN(C)CC2)c(F)cc2c(=O)c(C(=O)O)cn(/C=C/F)c12
[2] CN1CCN(c2c(F)cc3c(=O)c(C(=O)O)cn(CCF)c3c2F)CC1 [FLEROXACIN]
[3] NC1CCN(c2cc3c(cc2F)c(=O)c(C(=O)O)cn3/C=C\F)C1 (centres undefined)
[4] CN1CCN(c2c(F)cc3c(=O)c(C(=O)O)cn(/C=C/F)c3c2F)CC1
Ordering: ascending MIC. Give the labels in the order requested.
2, 3, 1, 4

[P] NC1CCN(c2cc3c(cc2F)c(=O)c(C(=O)O)cn3/C=C/F)C1 (centres undefined)
[Q] COc1c(N2CCN(C)CC2)c(F)cc2c(=O)c(C(=O)O)cn(/C=C\F)c12
Please compare: P and Q . Report which one has the smaller MIC value. Answer = label.
Q

* * *

target_desc: DNA gyrase (Staphylococcus aureus, UniProt P0A0K8+P20831)
measurement_description: Inhibitory concentration against DNA gyrase of Staphylococcus aureus
value_type: IC50 (µM)

structure_smiles_string	target_desc	unit_abbrev	IC50
CN1CCN(c2c(F)cc3c(=O)c(C(=O)O)cn(/C=C\F)c3c2F)CC1	DNA gyrase (Staphylococcus aureus, UniProt P0A0K8+P20831)	µM	197

[1] CN1CCN(c2c(F)cc3c(=O)c(C(=O)O)cn(CCF)c3c2F)CC1
[2] CN1CCN(c2c(F)cc3c(=O)c(C(=O)O)cn(/C=C/F)c3c2F)CC1
Please compare: 1 and 2 . Report which one has the smaller IC50 value. Answer = label.
1
(1: 185 µM, 2: 1810 µM)

* * *

Test system: Escherichia coli
measurement_description: In vitro minimum inhibitory concentration against Escherichia coli NIHJ JC-2
Format: functional
value_type: MIC (µg/mL)

structure_smiles_string	target_desc	MIC [µg/mL]
CN1CCN(c2c(F)cc3c(=O)c(C(=O)O)cn(/C=C\F)c3c2F)CC1	Escherichia coli	0.025

[P] CN1CCN(c2cc3c(cc2F)c(=O)c(C(=O)O)cn3/C=C/F)CC1
[Q] CN1CCN(c2cc3c(cc2F)c(=O)c(C(=O)O)cn3/C=C\F)CC1
Please compare: P and Q . Report which one has the smaller MIC value. Answer = label.
Q
(Q: 0.025 µg/mL, P: 0.2 µg/mL)
